# System: Parabacteroides distasonis
# TEST_DETAILS: growth AUC relative to DMSO control (median of replicates) (fraction); higher = more growth (less inhibition), active = hit call of the paper
# ASSAY_CONTEXT: 20 µM; 24 h
ENDPOINT: growth AUC

>>> print(df.to_string())
                                    compound                   tested_on    endpoint  recorded_number
 0                  CC(C)OC(=O)Nc1cccc(Cl)c1  Parabacteroides distasonis  growth AUC            0.965
 1   CCN(Cc1ccc(Cl)nc1)/C(=C/[N+](=O)[O-])NC  Parabacteroides distasonis  growth AUC             1.04
 2                        CCOP(=S)(OCC)SCSCC  Parabacteroides distasonis  growth AUC            0.921
 3               Cc1ccc(NC(=O)c2snnc2C)cc1Cl  Parabacteroides distasonis  growth AUC            0.986
 4  COc1cc(OC)nc(NC(=O)NS(=O)(=O)c2ncccc2C(F)(F)F)n1  Parabacteroides distasonis  growth AUC             1.05
 5  CCCN(CCCl)c1c([N+](=O)[O-])cc(C(F)(F)F)cc1[N+](=O)[O-]  Parabacteroides distasonis  growth AUC            0.962
 6  COC(=O)c1ccccc1CS(=O)(=O)NC(=O)Nc1nc(OC)cc(OC)n1  Parabacteroides distasonis  growth AUC            0.998
 7     CCOP(=O)(OCC)O/C(=C\Cl)c1ccc(Cl)cc1Cl  Parabacteroides distasonis  growth AUC            0.725
 8      CN(C)C(=S)[S-].CN(C)C(=S)[S-].[Zn+2]  Parabacteroides distasonis  growth AUC            0.954
 9      CCOP(=S)(OCC)Oc1ccc([N+](=O)[O-])cc1  Parabacteroides distasonis  growth AUC            0.964
10            OCC(O)CCl (stereo unspecified)  Parabacteroides distasonis  growth AUC             1.02
11  C=CC1(C)OC(=O)N(c2cc(Cl)cc(Cl)c2)C1=O (stereo unspecified)  Parabacteroides distasonis  growth AUC             0.98
12       COP(=O)(OC)O/C(=C/Br)c1ccc(Cl)cc1Cl  Parabacteroides distasonis  growth AUC            0.883
13                             O=P(O)(O)CCCl  Parabacteroides distasonis  growth AUC             1.01
14             CNC(=O)Oc1cc(C)c(N(C)C)c(C)c1  Parabacteroides distasonis  growth AUC            0.988
15                  COC(=O)Nc1nc2ccccc2[nH]1  Parabacteroides distasonis  growth AUC             1.03
16                       Nc1nc(N)[nH]c(=O)n1  Parabacteroides distasonis  growth AUC             1.05
17                                 C=CCN=C=S  Parabacteroides distasonis  growth AUC            0.996
18  CCNS(=O)(=O)C(F)(F)C(F)(F)C(F)(F)C(F)(F)C(F)(F)C(F)(F)C(F)(F)C(F)(F)F  Parabacteroides distasonis  growth AUC             1.01
19          C#CC(C)(C)NC(=O)c1cc(Cl)cc(Cl)c1  Parabacteroides distasonis  growth AUC             1.01
20                    O=C(Nc1ccccc1)Nc1cnns1  Parabacteroides distasonis  growth AUC             0.94

// provenance: the supplement of paper PMC12669032
